The origin of these recorded values is the supplement of paper PMC10567573.

B1: KLHL12 (parent)
chain: REESLPNLLQYVRMPLLTPRYITD

variants of: B1; assay: protein stability index of a GFP-peptide fusion (GPS, HEK-293T) (PSI 1-6); higher = more stable; conditions: c terminus: a fixed tail appended;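 further: lentivirally expressed fusions sorted by FACS into six bins by GFP to DsRed ratio, PSI derived from sequencing read proportions per bin multiplied by bin number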
measurement-type: protein stability index

Illustrative cases are given below, each with its answer.
- residue-codes: "REESLPNLLQYVRMGLLTPRYITD [P15G]"
  protein stability index: 3.67
- residue-codes: "REESLPNLLYYVRMPLLTPRYITD [Q10Y]"
  protein stability index: 2.16
- residue-codes: "REESLPNLLQYVMMPLLTPRYITD [R13M]"
  protein stability index: 2.07
- residue-codes: "RAESLPNLLQYVRMPLLTPRYITD [E2A]"
  protein stability index: 3.56
- residue-codes: "REESLPNLLQYVRMPLLTPVYITD [R20V]"
  protein stability index: 1.92
- residue-codes: "REESLPNLLQYVRMPLLTPRYITA [D24A]"
  protein stability index: 1.84

Output protein stability index of REESLPNLLQYVFMPLLTPRYITD [R13F]
2.06

Provide measured protein stability index value, entry: REESLPNLLQYVRMPLHTPRYITD [L17H]
2.83

Could you please provide reported protein stability index for REESLPNLLQYLRMPLLTPRYITD [V12L] ? Thanks!
1.86

Tell me measured protein stability index for REESLPNLLQTVRMPLLTPRYITD [Y11T] please.
3.06

For the variant REESLPNLLQYVRMPLLTPRYKTD [I22K] , report protein stability index.
3.71

Report measured protein stability index; entry is REESLPNLLQYVRMPLLTPRSITD [Y21S]
3.37

Could you please provide reported protein stability index for REESLPNLLQYVSMPLLTPRYITD [R13S] ? Thanks!
1.52

Supply measured protein stability index of REESLPNLLQYFRMPLLTPRYITD [V12F] in your reply.
1.86
